// values below are reported melting point

Below, 3 compounds whose answers are already recorded.
compound="COc1ccc(-c2nnc(C(=O)NO)o2)cc1OC [Compound 30f]" observed_measurement="130.7 °C (dec.)"
compound="O=C(CCc1nc(-c2ccc(OC(F)(F)F)cc2)no1)NO [Compound 17b]" observed_measurement="120 °C (dec.)"
compound="O=C(Cc1noc(-c2cccc(Cl)c2)n1)NO [Compound 23c]" observed_measurement="146 °C (dec.)"

What does the record list as melting point for O=C(NO)c1cccc(-c2noc(-c3ccccc3F)n2)c1 ?
199.3 °C (dec.)

Again, but for O=C(NO)c1cccc(-c2nc(-c3c(F)cccc3F)no2)c1 [Compound 14a]
204.2 °C (dec.)

Again, but for O=C(NO)c1ccc(-c2nc(-c3ccccc3)no2)cc1 [Compound 14e]
265.4 °C (dec.)

Again, but for O=C(NO)c1cccc(-c2nc(-c3ccc(OC(F)(F)F)cc3)no2)c1 [Compound 14b]
191 °C (dec.)

Again, but for Cc1cccc(-c2noc(C(=O)NO)n2)c1
106 °C (dec.)

Again, but for O=C(CCc1nc(-c2cc(F)c(F)c(F)c2)no1)NO [Compound 17c]
122 °C (dec.)

Again, but for COc1cccc(-c2nnc(C(=O)NO)o2)c1OC [Compound 30e]
166.7 °C (dec.)

* * *

// values below are reported melting point

Below, 4 compounds whose answers are already recorded.
compound="O=C(NO)c1nc(-c2cc(F)c(F)c(F)c2)no1 [Compound 4c]" readout_name="melting point" observed_measurement="133.6 °C (dec.)"
compound="O=C(NO)c1nc(-c2c(F)cccc2F)no1 [Compound 4a]" readout_name="melting point" observed_measurement="117.4 °C (dec.)"
compound="O=C(CCc1nc(-c2c(F)cccc2F)no1)NO [Compound 17a]" readout_name="melting point" observed_measurement="99 °C (dec.)"
compound="O=C(Cc1nc(-c2cc(F)c(F)c(F)c2)no1)NO [Compound 9c]" readout_name="melting point" observed_measurement="159.2 °C (dec.)"

What does the record list as melting point for COc1ccc(-c2nnc(C(=O)NO)o2)c(OC)c1 [Compound 30d] ?
197.3 °C (dec.)

* * *

- test.description: Cytotoxicity assay (Alamar Blue)
- Type: cell-based
- experimental.context: human, HEK293 cells, 72 h exposure, mean ± SD, at least 3 independent experiments
readout.name: CC50 at 72 h (µM)
Express the result in µM but write the number alone.

molecule="O=C(NO)c1cccc(-c2nc(-c3c(F)cccc3F)no2)c1 [Compound 14a]" observed_measurement=25.5
molecule="O=C(NO)c1ccc(-c2nc(-c3ccc(OC(F)(F)F)cc3)no2)cc1 [Compound 14d]" observed_measurement=5.28
molecule=O=C(NO)c1nc(-c2ccc(OC(F)(F)F)cc2)no1 observed_measurement=380
molecule="O=C(Cc1noc(-c2ccc(I)cc2)n1)NO [Compound 23b]" observed_measurement=169
molecule="O=C(Cc1noc(-c2ccc(Cl)cc2)n1)NO [Compound 23a]" observed_measurement=112

We next turn to a different molecule, shown below.
What does the record list as CC50 at 72 h for O=C(Cc1nc(-c2ccc(OC(F)(F)F)cc2)no1)NO ?
108

* * *

// values below are reported melting point

Below, 4 molecules whose answers are already recorded.
molecule="O=C(NO)c1cccc(-c2nc(-c3cc(F)c(F)c(F)c3)no2)c1 [Compound 14c]" readout_name="melting point" observed_measurement="188.5 °C (dec.)"
molecule=O=C(Cc1nc(-c2c(F)cccc2F)no1)NO readout_name="melting point" observed_measurement="149.7 °C (dec.)"
molecule=O=C(NO)c1nc(-c2ccc(OC(F)(F)F)cc2)no1 readout_name="melting point" observed_measurement="108.6 °C (dec.)"
molecule=COc1ccc(-c2noc(C(=O)NO)n2)cc1 readout_name="melting point" observed_measurement="144 °C (dec.)"

What does the record list as melting point for O=C(NO)c1ccc(-c2nc(-c3ccc(OC(F)(F)F)cc3)no2)cc1 [Compound 14d] ?
236 °C (dec.)

Again, but for O=C(NO)c1nnc(-c2cccc(I)c2)o1 [Compound 30b]
274.9 °C (dec.)

Again, but for O=C(Cc1nc(-c2ccc(OC(F)(F)F)cc2)no1)NO
177 °C (dec.)

Again, but for O=C(Cc1noc(-c2ccc(I)cc2)n1)NO [Compound 23b]
211.6 °C (dec.)

Again, but for Cc1cccc(-c2noc(CC(=O)NO)n2)c1
165.4 °C (dec.)

Again, but for Cn1c(-c2nnc(C(=O)NO)o2)cc2ccccc21
198 °C (dec.)

* * *

// values below are reported CC50 at 72 h
- test.description: Cytotoxicity assay (Alamar Blue)
- Format: cell-based
- experimental.context: human, HEK293 cells, 72 h exposure, mean ± SD, at least 3 independent experiments
Express the result in µM but write the number alone.

molecule="O=C(NO)c1nc(-c2ccc(I)cc2)no1 [Compound 4f]" observed_measurement=367
molecule="O=C(CCc1nc(-c2c(F)cccc2F)no1)NO [Compound 17a]" observed_measurement=30.8
molecule="O=C(NO)c1cccc(-c2nc(-c3cc(F)c(F)c(F)c3)no2)c1 [Compound 14c]" observed_measurement=4.53

What does the record list as CC50 at 72 h for O=C(Cc1nc(-c2c(F)cccc2F)no1)NO [Compound 9a] ?
188

Again, but for O=C(NO)c1ccc(-c2nc(-c3ccccc3)no2)cc1 [Compound 14e]
15

Again, but for Cc1cccc(-c2noc(CCC(=O)NO)n2)c1 [Compound 17d]
21.3

Again, but for Cn1c(-c2nnc(C(=O)NO)o2)cc2ccccc21 [Compound 36]
132

Again, but for O=C(NO)c1cccc(-c2nc(-c3ccc(OC(F)(F)F)cc3)no2)c1 [Compound 14b]
6.39

Again, but for Cc1cccc(-c2noc(C(=O)NO)n2)c1 [Compound 4d]
457

Again, but for O=C(NO)c1cccc(-c2noc(-c3ccccc3F)n2)c1 [Compound 26]
21.7

Again, but for O=C(Cc1noc(-c2cccc(I)c2)n1)NO [Compound 23d]
171

Again, but for O=C(CCc1nc(-c2cc(F)c(F)c(F)c2)no1)NO [Compound 17c]
59.2

* * *

// values below are reported melting point

What does the record list as melting point for O=C(NO)c1nc(-c2ccc(I)cc2)no1 [Compound 4f] ?
181.3 °C (dec.)

Again, but for O=C(Cc1noc(-c2cccc(I)c2)n1)NO [Compound 23d]
156.3 °C (dec.)

Again, but for O=C(NO)c1nnc(-c2ccc(I)cc2)o1 [Compound 30a]
184.4 °C (dec.)

Again, but for Cc1cccc(-c2noc(CCC(=O)NO)n2)c1 [Compound 17d]
115.8 °C (dec.)

Again, but for Cc1cc(F)ccc1-c1nnc(C(=O)NO)o1 [Compound 30c]
259.6 °C (dec.)

Again, but for O=C(Cc1noc(-c2ccc(Cl)cc2)n1)NO [Compound 23a]
174 °C (dec.)

* * *

// values below are reported CC50 at 72 h
- test.description: Cytotoxicity assay (Alamar Blue)
- Format: cell-based
- experimental.context: human, HEK293 cells, 72 h exposure, mean ± SD, at least 3 independent experiments
Express the result in µM but write the number alone.

compound="COc1cccc(-c2nnc(C(=O)NO)o2)c1OC [Compound 30e]" readout_name="CC50 at 72 h" observed_measurement=770
compound="O=C(CCc1nc(-c2ccc(OC(F)(F)F)cc2)no1)NO [Compound 17b]" readout_name="CC50 at 72 h" observed_measurement=42.4

We next turn to a different compound, shown below.
What does the record list as CC50 at 72 h for O=C(NO)c1nnc(-c2ccc(I)cc2)o1 [Compound 30a] ?
62.2

* * *

- test.description: Cytotoxicity assay (Alamar Blue)
- Type: cell-based
- experimental.context: human, HEK293 cells, 72 h exposure, mean ± SD, at least 3 independent experiments
// values below are reported CC50 at 72 h
Express the result in µM but write the number alone.

Below, 3 compounds whose answers are already recorded.
compound="O=C(Cc1nc(-c2cc(F)c(F)c(F)c2)no1)NO [Compound 9c]" unit_annotation=µM observed_measurement=189
compound="O=C(Cc1noc(-c2cccc(Cl)c2)n1)NO [Compound 23c]" unit_annotation=µM observed_measurement=143
compound="Cc1cccc(-c2noc(CC(=O)NO)n2)c1 [Compound 9d]" unit_annotation=µM observed_measurement=176

We next turn to a different compound, shown below.
What does the record list as CC50 at 72 h for COc1ccc(-c2nnc(C(=O)NO)o2)cc1OC [Compound 30f] ?
478

* * *

- test.description: Cytotoxicity assay (Alamar Blue)
- Assay type: cell-based
- experimental.context: human, HEK293 cells, 72 h exposure, mean ± SD, at least 3 independent experiments
readout.name: CC50 at 72 h

Below, 4 compounds whose answers are already recorded.
compound="O=C(NO)c1nc(-c2c(F)cccc2F)no1 [Compound 4a]" readout_name="CC50 at 72 h" observed_measurement="> 500 µM"
compound="COc1ccc(-c2nnc(C(=O)NO)o2)c(OC)c1 [Compound 30d]" readout_name="CC50 at 72 h" observed_measurement="> 600 µM"
compound="COc1ccc(-c2noc(C(=O)NO)n2)cc1 [Compound 4e]" readout_name="CC50 at 72 h" observed_measurement="> 250 µM"
compound="O=C(NO)c1nc(-c2cc(F)c(F)c(F)c2)no1 [Compound 4c]" readout_name="CC50 at 72 h" observed_measurement="> 500 µM"

We next turn to a different compound, shown below.
What does the record list as CC50 at 72 h for Cc1cc(F)ccc1-c1nnc(C(=O)NO)o1 [Compound 30c] ?
> 200 µM
